# Experiment description: self-splicing fitness, log relative to wild type (ln ratio); higher = more splicing; Tetrahymena group I intron in knt gene, E. coli kanamycin selection, DiMSum; sequences stand for … in CUCUCU…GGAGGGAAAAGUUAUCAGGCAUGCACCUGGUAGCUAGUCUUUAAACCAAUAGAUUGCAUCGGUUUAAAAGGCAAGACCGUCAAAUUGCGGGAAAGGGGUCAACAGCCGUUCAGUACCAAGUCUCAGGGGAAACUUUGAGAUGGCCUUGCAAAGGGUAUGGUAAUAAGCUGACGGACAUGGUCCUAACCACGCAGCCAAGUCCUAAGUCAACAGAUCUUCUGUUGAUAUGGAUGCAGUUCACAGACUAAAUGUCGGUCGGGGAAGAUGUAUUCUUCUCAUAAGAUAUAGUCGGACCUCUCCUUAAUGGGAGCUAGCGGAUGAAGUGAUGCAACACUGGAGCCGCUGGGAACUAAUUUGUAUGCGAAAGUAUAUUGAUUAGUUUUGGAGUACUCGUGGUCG;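 further: selection with 25 µg/mL kanamycin versus none on LB agar overnight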
# Measurement conditions: 30 °C
Measure: self-splicing fitness (ln)

| Seq text | Numeric value |
| --- | --- |
| CACAAGCAAUAUUACGUCUU | -3.88 |
| GCUAAGCAAUAUUACGUUUC | -3 |
| CACUAGCAAUAUUACGGGUG | -4.03 |
| CCGUAGCAAUAUUACGACUU | -2.98 |
| CACGAGCAAUAUUACGUCAG | -3.42 |
| CCACAGCAAUAUUACGAGUU | -2.76 |
| AGACAGCAAUAUUACGGUUA | -0.253 |
| AAAUAGCAAUAUUACGCCCC | -1.71 |
| UGGAAGCAAUAUUACGAUGC | -1.67 |
| GUCCAGCAAUAUUACGCUCU | -0.327 |
| ACUAAGCAAUAUUACGAAUG | -2.31 |
| CAGAAGCAAUAUUACGGUAU | -3.21 |
| CAAAAGCAAUAUUACGAUCC | -2.58 |
| GUGAAGCAAUAUUACGUAUA | -1.53 |
| UCCAAGCAAUAUUACGGCGG | -1.42 |
| AGUGAGCAAUAUUACGGUUA | -2.29 |
| ACGCAGCAAUAUUACGUCGU | -3.77 |
| AUCAAGCAAUAUUACGGAUG | -2.01 |
| GUCGAGCAAUAUUACGGAUC | -1.36 |
| UGUCAGCAAUAUUACGUACC | -0.242 |
| ACCGAGCAAUAUUACGGUGC | -2.97 |
| AGGAAGCAAUAUUACGACGU | 0.0515 |
| CCGCAGCAAUAUUACGUAAG | 0.385 |
| AGCAAGCAAUAUUACGAGCC | -1.65 |
| AUUGAGCAAUAUUACGUUGG | -3.62 |
| GAGUAGCAAUAUUACGGGUU | -2.25 |
| CUACAGCAAUAUUACGUCCA | -3.07 |
| UGGUAGCAAUAUUACGCCUU | -0.729 |
| AUUCAGCAAUAUUACGAGGG | -2.42 |
| AACCAGCAAUAUUACGCGAG | -1.21 |
| CAUUAGCAAUAUUACGGGCG | -0.183 |
| CCAAAGCAAUAUUACGGAAU | -4.11 |
| CGCCAGCAAUAUUACGUGUC | -3.34 |
| GUCCAGCAAUAUUACGCUGG | -4.01 |
